ASSAY: NFAT Signaling Pathway (AID 444);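 also: carbachol stimulus at about its EC50 of 1 µM final; % is scaled to controls: 0 for no effect and ±100 for the full control effect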
CONDITION SUMMARY: Jurkat NFAT-bla M1, carbachol, beta-lactamase ratio, 5 h; at 17.2 µM (top of the series) unless noted
Records with an inconclusive call do not appear. Calls of active or inactive are those of the source. Calls follow the shape of the dose curve; as a rule, active = well fitted curve in either direction with a large enough effect (not every such curve was filed as active); inconclusive = small, poorly fitted or top-dose-only effect, or another doubt; inactive = flat fitted curve, though single readings scatter.
EXPERIMENTAL READOUT: activity change, negative = inhibition

1) O=C(O)C[C@@H]1CCCc2ccccc2[C@H]1O :: 2.27% [at 38 µM] (inactive)
2) CCCOc1ccc(/C(O)=C2/C(=O)C(=O)N(CCN(C)C)C2c2ccncc2)cc1 (configuration not stated) :: 4.76% (inactive)
3) Cc1cc(NCC2CCCO2)n2c(nc3ccccc32)c1C#N (configuration not stated) :: -16.9% (inactive)

Entry under test: O=C(Nc1nnc(SCc2ccccc2F)s1)c1ccco1 . Its activity change, negative = inhibition was 11.2% (inactive)

Quick note, activity change, negative = inhibition for CCCc1nnc(NC(=O)c2c(O)c3c([nH]c2=O)CCCC3)s1 landed at -18.4% (inactive)

Item: CCOC(=O)CSc1nc(-c2ccncc2)ccc1C#N | activity change, negative = inhibition: -7.89% (inactive)

activity change, negative = inhibition recorded for this compound, COc1cccc(C2/C(=C(\O)c3ccc4c(c3)OCCO4)C(=O)C(=O)N2CCN(C)C)c1 (configuration not stated) , is 2.4% (inactive)

Value of measured activity change, negative = inhibition for the entry COc1ccc(CC(=O)OCN2C(=O)c3ccccc3C2=O)cc1 : -7.12% (inactive)

activity change, negative = inhibition reported for this compound CC(C)CN1C(=O)NC(NC(=O)c2cccnc2)(C(F)(F)F)C1=O (configuration not stated) : 3.51% (inactive)

The compound identified as FC(F)(F)c1cccc(N2CCc3cn[nH]c32)c1 registered its activity change, negative = inhibition at 0.155% (inactive)

Item: CCn1c(SCC(=O)NC2CCCCC2C)nnc1-c1ccc(OC)cc1 (configuration not stated) | activity change, negative = inhibition: 19.9% (inactive)

The measured activity change, negative = inhibition associated with CCc1nc(NCC2CCCO2)c(C#N)c2c1COC(C)(C)C2 (configuration not stated) reads -16.2% (inactive)

###

Tested on: CP305
ASSAY: qHTS profiling for inhibitors of Plasmodium falciparum proliferation (AID 504749); also: nearly all actives have a fitted effect of over 60% in size
CONDITION SUMMARY: P. falciparum in erythrocytes, SYBR Green DNA, 72 h; series mostly up to 28.7 µM
Inconclusive results are not listed. Calls of active or inactive are those of the source. Calls follow the shape of the dose curve; as a rule, active = well fitted inhibition curve with a large enough effect; inconclusive = small, poorly fitted or top-dose-only effect; inactive = flat fitted curve, though single readings scatter.
In this exercise, the only acceptable responses are active, inactive

Observe how each entry below is paired with its result.
1. CC12C=CC(=O)C=C1[C@@H](F)CC1C2C(O)CC2(C)C1CC[C@]2(O)C(=O)CO (stereo partly drawn) :: inactive
2. CCCC[C@H](O)c1ccccc1 :: inactive
3. C=C1CC[C@H](O)C/C1=C/C=C1\CCC[C@]2(C)[C@@H]([C@H](C)CC[C@@H](O)C(C)(C)O)CC[C@@H]12 :: inactive
4. C[C@@H]1CC2[C@@H]3C[C@H](F)C4=CC(=O)C(Cl)=C[C@]4(C)[C@@]3(F)[C@H](O)C[C@]2(C)[C@@]1(O)C(=O)CO (stereo partly drawn) :: inactive

Challenge: Test call, this compound: C[C@@H]1C(SC2Cn3cnc[n+]3C2)=C(C(=O)[O-])N2C(=O)[C@H]([C@@H](C)O)[C@@H]12 (stereo partly drawn)
Response given: inactive

Challenge: What did this assay record as the result for CCN1CCN(C(=O)NC(C(=O)NC2C(=O)N3C(C(=O)O)=C(CSc4nnnn4C)CSC23)c2ccc(O)cc2)C(=O)C1=O (stereo not drawn) ?
Response given: inactive

Challenge: Could you kindly confirm the outcome this assay logged for OCCN1CC(O)C(O)C(O)C1CO (stereo not drawn) ?
Response given: inactive

Challenge: Record lookup: outcome of this test for CC(=O)NC1[C@H]([C@H](O)[C@H](O)CO)OC(C(=O)O)=C[C@H]1N=C(N)N (stereo partly drawn) ?
Response given: inactive

Challenge: Could you check what this test reported for C[C@]12CCC(=O)C=C1[C@@H]1C[C@H]1[C@H]1[C@@H]3[C@@H]4C[C@H]4[C@@]4(CCC(=O)O4)[C@@]3(C)CC[C@@H]12 ?
Response given: inactive

Challenge: Tell me the recorded outcome of this test for C=C1NC(=O)c2cc(CN(C)c3ccc(C(=O)N[C@@H](CCC(=O)O)C(=O)O)s3)ccc2N1 .
Response given: inactive

###

ASSAY: NFAT Signaling Pathway (AID 444);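 also: carbachol stimulus at about its EC50 of 1 µM final; % is scaled to controls: 0 for no effect and ±100 for the full control effect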
CONDITION SUMMARY: Jurkat NFAT-bla M1, carbachol, beta-lactamase ratio, 5 h; at 17.2 µM (top of the series) unless noted
Records with an inconclusive call do not appear.
EXPERIMENTAL READOUT: activity change, negative = inhibition (%)
Form entry: value (%) — number only.

Here is how some molecules turned out for activity change, negative = inhibition.
1) CCCC(=O)Nn1cnc2c(c1=O)C1(CCCC1)Cc1ccccc1-2 :: -0.237
2) CCOC(=O)Cn1nc(C)c2ccccc2c1=O :: 3.38

Notebook: CC(=O)c1ccc(O)c(CO)c1 , activity change, negative = inhibition read as -1.78

Per the record, CCOc1cc(CN2CCOCC2)cc(C(C)=O)c1 has activity change, negative = inhibition of -4.27

In plain terms, CCOC(=O)c1cnn2c1[nH]c(=O)c1ccccc12 has a documented activity change, negative = inhibition of 9.32

Consider CCCCOC(=O)CSC1=C(C#N)C(c2ccccc2OC)C(C#N)C(=O)N1 (stereo not given) . Its measured activity change, negative = inhibition is 20.9

Reported activity change, negative = inhibition of CCCC1CC(=O)OC1(C)C(=O)CSc1n[nH]c(-c2ccccc2)n1 (stereo not given) : 8.59

###

Test system: TAB113
ASSAY: qHTS profiling for inhibitors of Plasmodium falciparum proliferation (AID 504749); also: nearly all actives have a fitted effect of over 60% in size
CONDITION SUMMARY: P. falciparum in erythrocytes, SYBR Green DNA, 72 h; series mostly up to 28.7 µM
Records with an inconclusive call do not appear. The source made the active and inactive calls. The call rests on the fitted dose curve; in most records, active means well fitted inhibition curve with a large enough effect; inconclusive means small, poorly fitted or top-dose-only effect; inactive means flat fitted curve, though single readings scatter.
Permitted responses: active, inactive

Worked examples follow.
1. Cc1cc(O)c2c(c1)OC1(C)CCC3C(C)(C)CCCC34COC2C14 (stereo not given) :: active
2. COc1cccc2c1C(=O)c1c(O)c3c(c(O)c1C2=O)C[C@@](O)(C(=O)CO)C[C@@H]3OC1CC(N)C(O)C(C)O1 (stereo not given in full) :: active
3. Nc1ncn(C2C[C@H](O)[C@@H](CO)O2)c(=O)n1 (stereo not given in full) :: inactive

Challenge: // param item: CC1CCC(C(C)C)C(O)C1 (stereo not given) ; yields the recorded call
Response given: inactive

Challenge: What classification did COC(c1ccccc1)(c1ccccc1)C(Oc1nc(C)cc(C)n1)C(=O)O (stereo not given) end up with in this test?
Response given: inactive

###

ASSAY: Cell Viability - LYMP2-010 (AID 981);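 also: cells exposed to compound for 24 hours at 37 °C; nearly all actives have a fitted effect of over 55% in size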; also: potency is read from the fitted curve at half-maximal effect
CONDITION SUMMARY: LYMP2-010 lymphoblastoid cell viability, qHTS; series mostly up to 92.2 µM
Inconclusive results are not listed. Calls of active or inactive are those of the source. Calls come from the whole dose curve; as a rule, active = well fitted cell-killing curve with a large enough effect; inconclusive = small, poorly fitted or top-dose-only effect; inactive = flat fitted curve, though single readings scatter.
EXPERIMENTAL READOUT: Potency

Worked examples, 4 compounds total:
1. O=[N+]([O-])c1cc([N+](=O)[O-])c2ccc(S(=O)(=O)O)cc2c1O :: inactive
2. c1ccc2c(c1)ccc1cc3c(ccc4ccccc43)cc12 :: inactive
3. C=CC(=O)OCCOCCOC(=O)C=C :: 15.8 µM (active)
4. Cc1cc(Nc2ccc(O)cc2)ccc1N :: 31.6 µM (active)

Lab note: next compound to report on.
Given item c1ccc2c(c1)-c1cccc3c1c-2cc1ccccc13 , the value recorded as its Potency is inactive

###

Tested on: CP215
ASSAY: qHTS profiling for inhibitors of Plasmodium falciparum proliferation (AID 504749); also: nearly all actives have a fitted effect of over 60% in size
CONDITION SUMMARY: P. falciparum in erythrocytes, SYBR Green DNA, 72 h; series mostly up to 28.7 µM
Results filed as inconclusive are left out. Activity calls are given as the source filed them. Calls follow the shape of the dose curve; as a rule, active = well fitted inhibition curve with a large enough effect; inconclusive = small, poorly fitted or top-dose-only effect; inactive = flat fitted curve, though single readings scatter.
Mark one answer only. Choices: label 1 (active), label 0 (inactive)

Recorded results for 5 compounds are shown here.
1. CO[C@H]1C[C@@H]2CC[C@@H](C)[C@@](O)(O2)C(=O)C(=O)N2CCCC[C@H]2C(=O)O[C@H]([C@H](C)C[C@@H]2CC[C@@H](O)[C@H](OC)C2)CC(=O)[C@H](C)/C=C(\C)[C@@H](O)[C@@H](OC)C(=O)[C@H](C)C[C@H](C)/C=C/C=C/C=C/1C :: label 1
2. O=C(O)C(O)c1ccccc1 (stereo not given) :: label 0
3. C=C1CCC(O)C/C1=C/C=C1\CCC[C@]2(C)[C@@H]([C@H](C)/C=C/[C@H](C)C(C)C)CC[C@@H]12 (stereo not given in full) :: label 0
4. CN1[C@H]2CC(OC(=O)[C@H](CO)c3ccccc3)C[C@H]1[C@H]1O[C@H]12 (stereo not given in full) :: label 0
5. CNC(=O)C(N)CSC(C)C1=C(C)c2cc3[n-]c(cc4nc(cc5[n-]c(cc1n2)c(C)c5CCC(=O)O)C(CCC(=O)O)=C4C)c(C)c3C(C)SCC(N)C(=O)NC.[Fe+2] (stereo not given) :: label 0

Challenge: Which result was noted for this compound in the test: COC(c1ccccc1)(c1ccccc1)C(Oc1nc(C)cc(C)n1)C(=O)O (stereo not given)
Response given: label 0

Challenge: # outcome recorded in this test, key = CC(c1ncncc1F)[C@](O)(Cn1cncn1)c1ccc(F)cc1F (stereo not given in full)
Response given: label 0

Challenge: Given CC(C)(C)C(=O)OCC(=O)C1CCC2C3CCC4=CC(=O)CCC4(C)C3CCC12C (stereo not given) , state the outcome it received in this test.
Response given: label 0

Challenge: Hi team, can someone confirm the assay call for COC(=O)C1[C@@H](OC)C(OC(=O)COc2ccc(OC)cc2)C[C@@H]2CN3CCc4c([nH]c5cc(OC)ccc45)[C@H]3C[C@H]12 (stereo not given in full) ?
Response given: label 0

Challenge: Hello, I am checking results. What call was entered for CCN1CCN(C(=O)NC(C(=O)NC2C(=O)N3C(C(=O)O)=C(CSc4nnnn4C)CSC23)c2ccc(O)cc2)C(=O)C1=O (stereo not given) ?
Response given: label 0
